# system_tested: Thyrotropin-releasing hormone receptor (Homo sapiens)
# assay_details: qHTS assay to identify small molecule antagonists of the thyrotropin-releasing hormone receptor (TRHR) signaling pathway (AID 1346877)
# assay_context: TRHR-HEK293, TRH-induced calcium fluorescence, antagonist mode; series mostly up to 51.3 µM
Activity calls are given as the source filed them. Calls follow the shape of the dose curve; as a rule, active = well fitted inhibition curve with a large enough effect in the repeat runs (not every such curve was filed as active); inconclusive = weak or mixed curves; inactive = flat fitted curve, though single readings scatter.

>  <structure_smiles_string>
CN(C)CCN1C(=O)c2ccccc2N(C)c2ccccc21

>  <system_tested>
Thyrotropin-releasing hormone receptor (Homo sapiens)

>  <activity, negative = inhibition>
inactive

$$$$
>  <structure_smiles_string>
O=C1c2ccccc2C(=O)N1CCc1noc(-c2ccc(CN3CCCCCC3)s2)n1

>  <system_tested>
Thyrotropin-releasing hormone receptor (Homo sapiens)

>  <activity, negative = inhibition>
inactive

$$$$
>  <structure_smiles_string>
CCOC(C)=O

>  <system_tested>
Thyrotropin-releasing hormone receptor (Homo sapiens)

>  <activity, negative = inhibition>
inactive

$$$$

----------
# assay_details: qHTS assay for identifying genotoxic compounds that show differential cytotoxicity against isogenic chicken DT40 cell lines with known DNA damage response pathways - Rev3 mutant cell line (AID 743014); also: nearly all actives have a fitted effect of over 55% in size
# assay_context: chicken DT40 Rev3-/- viability, CellTiter-Glo, 40 h; series mostly up to 68.4 µM
Inconclusive results are not listed. Active and inactive are the calls of the source. Calls follow the shape of the dose curve; as a rule, active = well fitted cell-killing curve with a large enough effect in the repeat runs; inconclusive = weak or mixed curves, or effect the other way; inactive = no such curve, though single readings can be large or run the other way.
Hi! Could you answer with just one of these? 1 (yes) for active, 0 (no) for inactive

>  <molecule>
CC(=O)Oc1ccc([N+](=O)[O-])cc1CCl

>  <cat>
1 (yes)

$$$$

Please let me know the test result on file for `OCCOCC#CCOCCO` .
0 (no)

Please let me know the test result on file for `c1ccc(C[n+]2cccc3ccccc32)cc1` .
1 (yes)

Please let me know the test result on file for `CN1C(=O)OC(C)(C)C1=O` .
0 (no)

Please let me know the test result on file for `CC(C)c1nc(CN(C)C(=O)N[C@H](C(=O)N[C@@H](Cc2ccccc2)C[C@H](O)[C@H](Cc2ccccc2)NC(=O)OCc2cncs2)C(C)C)cs1` .
0 (no)

Please let me know the test result on file for `COC(=O)C1=C(C)NC(C)=C(C(=O)O[C@@H]2CCCN(Cc3ccccc3)C2)[C@@H]1c1cccc([N+](=O)[O-])c1` .
1 (yes)

----------
# system_tested: Estrogen receptor (Homo sapiens)
# assay_details: qHTS assay to identify small molecule antagonists of the estrogen receptor alpha (ER-alpha) signaling pathway using the BG1 cell line in the presence of 0.1 nM 17-beta-estradiol (AID 1259244); also: nearly all actives have a fitted effect of over 50% in size
# assay_context: VM7Luc4E2 (BG1) ERE-luciferase, antagonist mode, 0.1 nM E2, 22 h; series mostly up to 92.4 µM
Records with an inconclusive call do not appear. The source made the active and inactive calls. Calls follow the shape of the dose curve; as a rule, active = well fitted inhibition curve with a large enough effect in the repeat runs; inconclusive = weak or mixed curves; inactive = no such curve, though single readings can be large or run the other way.
measure: outcome

>  <structure_smiles_string>
C[C@H]1C[C@H](O)c2ccsc2S1(=O)=O

>  <system_tested>
Estrogen receptor (Homo sapiens)

>  <value>
inactive

$$$$
>  <structure_smiles_string>
CCCCCCCCCI

>  <system_tested>
Estrogen receptor (Homo sapiens)

>  <value>
inactive

$$$$
>  <structure_smiles_string>
CC(C)Nc1cccnc1N1CCN(C(=O)c2cc3cc(NS(C)(=O)=O)ccc3[nH]2)CC1

>  <system_tested>
Estrogen receptor (Homo sapiens)

>  <value>
inactive

$$$$

----------
# system_tested: Estrogen receptor (Homo sapiens) (UniProt P03372)
# Sequence (P03372 whole entry, looked up): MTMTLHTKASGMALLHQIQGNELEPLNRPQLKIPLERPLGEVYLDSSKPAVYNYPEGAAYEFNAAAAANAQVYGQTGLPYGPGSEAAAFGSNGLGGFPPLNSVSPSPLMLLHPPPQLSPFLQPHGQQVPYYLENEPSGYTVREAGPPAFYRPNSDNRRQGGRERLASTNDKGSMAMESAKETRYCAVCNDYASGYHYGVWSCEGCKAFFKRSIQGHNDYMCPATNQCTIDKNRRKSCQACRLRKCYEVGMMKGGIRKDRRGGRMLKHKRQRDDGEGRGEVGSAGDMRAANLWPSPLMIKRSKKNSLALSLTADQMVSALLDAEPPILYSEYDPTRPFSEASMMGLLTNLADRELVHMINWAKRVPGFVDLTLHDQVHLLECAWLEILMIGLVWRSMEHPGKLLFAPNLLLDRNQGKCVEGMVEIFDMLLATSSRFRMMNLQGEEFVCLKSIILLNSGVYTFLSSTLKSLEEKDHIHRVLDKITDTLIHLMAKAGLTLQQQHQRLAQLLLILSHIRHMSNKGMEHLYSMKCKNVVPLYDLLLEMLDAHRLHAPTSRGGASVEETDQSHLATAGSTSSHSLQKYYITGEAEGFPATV
# assay_details: qHTS assay to identify small molecule antagonists of the estrogen receptor alpha (ER-alpha) signaling pathway using the BG1 cell line in the presence of 0.1 nM 17-beta-estradiol (AID 1259244); also: nearly all actives have a fitted effect of over 50% in size
# assay_context: VM7Luc4E2 (BG1) ERE-luciferase, antagonist mode, 0.1 nM E2, 22 h; series mostly up to 92.4 µM
# Excerpt: National Center for Advancing Translational Sciences [NCATS] NIH Chemical Genomics Center [NCGC] U.S. Environmental Protection Agency [EPA] National Institutes of Environmental Health Sciences [NIEHS] National Toxicology Program [NTP] U.S. Food and Drug Administration [FDA] Estrogen receptor (ER), a member of the nuclear hormone receptor plays an important role in development, metabolic homeostasis and reproduction. […]
Results filed as inconclusive are left out. Active and inactive are the calls of the source. Calls follow the shape of the dose curve; as a rule, active = well fitted inhibition curve with a large enough effect in the repeat runs; inconclusive = weak or mixed curves; inactive = no such curve, though single readings can be large or run the other way.
Hi! Could you answer with just one of these? active, inactive

>  <structure_smiles_string>
CCCC(C(=O)OCCN(CC)CC)(c1ccccc1)c1ccccc1

>  <cat>
inactive

$$$$
>  <structure_smiles_string>
CCCCCCC(C)(C)C(=O)O

>  <cat>
inactive

$$$$

Please let me know the test result on file for `Nc1nnc(-c2ccc([N+](=O)[O-])o2)o1` .
active

Please let me know the test result on file for `CC(=O)N/N=C/c1ccc([N+](=O)[O-])o1` .
inactive
